Listed binders paired with reported kon
# TARGET SYSTEM: T1, Cynomolgus CD3 epsilon Protein, His Tag (Acrobiosystems, Cat #CDE-05226) (cynomolgus (Macaca fascicularis), UniProt Q95LI5 22-117)
# T1 construct: also called monkey CD3e; not shown: His tag
# T1 sequence: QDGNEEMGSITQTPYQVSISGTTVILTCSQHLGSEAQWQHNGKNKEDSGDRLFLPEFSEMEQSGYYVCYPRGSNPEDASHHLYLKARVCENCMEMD
# PROTOCOL NOTES: SPR (Biacore), cynomolgus CD3e His tag
Supply the numeric figure in M⁻¹ s⁻¹, leaving out any unit text.

# BINDER, UNITS TEXT, kon
records = [
    ("10A4-H1K1-IgG1-LALA (antibody, V domains shown, Humanized; human IgG1 with LALA mutations; also called H1K1 (humanized 10A4)) VH: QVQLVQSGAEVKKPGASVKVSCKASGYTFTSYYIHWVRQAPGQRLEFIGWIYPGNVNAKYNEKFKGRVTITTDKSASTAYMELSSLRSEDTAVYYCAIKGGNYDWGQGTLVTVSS VL: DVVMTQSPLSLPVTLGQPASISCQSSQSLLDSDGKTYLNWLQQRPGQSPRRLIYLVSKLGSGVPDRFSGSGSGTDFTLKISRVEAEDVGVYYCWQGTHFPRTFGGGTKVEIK", "M⁻¹ s⁻¹", 45200),
    ("1B1-H2K1-IgG1-LALA (antibody, V domains shown, Humanized; human IgG1 with LALA mutations; also called H2K1 (humanized 1B1)) VH: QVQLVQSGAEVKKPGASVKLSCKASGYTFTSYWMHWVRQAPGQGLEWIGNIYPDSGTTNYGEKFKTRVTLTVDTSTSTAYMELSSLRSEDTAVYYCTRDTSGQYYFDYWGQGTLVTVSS VL: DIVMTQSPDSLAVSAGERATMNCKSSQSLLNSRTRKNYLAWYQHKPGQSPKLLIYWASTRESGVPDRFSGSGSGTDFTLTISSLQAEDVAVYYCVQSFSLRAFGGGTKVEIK", "M⁻¹ s⁻¹", 142000),
    ("1B1-H2K2-IgG1-LALA (antibody, V domains shown, Humanized; human IgG1 with LALA mutations; also called H2K2 (humanized 1B1)) VH: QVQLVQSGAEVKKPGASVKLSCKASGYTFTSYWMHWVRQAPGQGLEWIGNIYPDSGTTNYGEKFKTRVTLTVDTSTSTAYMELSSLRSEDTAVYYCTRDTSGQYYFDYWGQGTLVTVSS VL: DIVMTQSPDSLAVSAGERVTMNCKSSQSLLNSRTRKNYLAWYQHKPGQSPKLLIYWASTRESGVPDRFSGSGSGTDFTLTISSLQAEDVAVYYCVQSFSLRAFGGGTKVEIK", "M⁻¹ s⁻¹", 99800),
    ("1B1-H2K3-IgG1-LALA (antibody, V domains shown, Humanized; human IgG1 with LALA mutations; also called H2K3 (humanized 1B1)) VH: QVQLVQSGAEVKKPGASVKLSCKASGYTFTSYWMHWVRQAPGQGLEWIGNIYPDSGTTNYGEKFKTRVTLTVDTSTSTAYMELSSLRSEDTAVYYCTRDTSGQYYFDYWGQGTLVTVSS VL: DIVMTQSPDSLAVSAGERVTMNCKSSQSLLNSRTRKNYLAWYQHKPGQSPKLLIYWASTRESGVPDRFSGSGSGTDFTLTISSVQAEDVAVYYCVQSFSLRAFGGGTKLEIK", "M⁻¹ s⁻¹", 110000),
]

Query: Fill in the blank: the reported kon of 10A4-H2K1-IgG1-LALA (antibody, V domains shown, Humanized; human IgG1 with LALA mutations; also called H2K1 (humanized 10A4)) VH: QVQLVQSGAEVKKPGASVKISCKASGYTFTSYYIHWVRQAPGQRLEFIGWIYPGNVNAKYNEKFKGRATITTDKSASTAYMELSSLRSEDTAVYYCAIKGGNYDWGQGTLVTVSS VL: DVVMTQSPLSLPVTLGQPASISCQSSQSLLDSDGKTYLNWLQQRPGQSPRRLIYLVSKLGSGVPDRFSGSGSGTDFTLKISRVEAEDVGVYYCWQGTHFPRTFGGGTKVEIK is ____.
Result: 55900
